- target-or-system: VIPR2 (Homo sapiens, UniProt P41587)
- method-notes: Inhibition of VIP-induced cAMP elevation (% Activity cAMP)
- Format: cell-based
- Parameters: expressed in transfected cells; host or cells: HEK293 cells transfected with VIPR2 in pCDNA3.1 (as described)
- study-conditions: 1 μM, Batch 1
endpoint: inhibition at 1 µM (%)

CC(C)C(=O)NC[C@@H](O)C[C@@H](Cc1ccccc1)C(=O)N[C@H]1c2ccccc2C[C@H]1O : 2.6
CS(=O)(=O)NC[C@@H](O)C[C@@H](Cc1ccccc1)C(=O)N[C@H]1c2ccccc2C[C@H]1O : 21.9

[a] O=C(N[C@H]1c2ccccc2C[C@H]1O)[C@H](Cc1ccccc1)C[C@H](O)CNS(=O)(=O)c1ccccc1F
[b] O=C(NC[C@@H](O)C[C@@H](Cc1ccccc1)C(=O)N[C@H]1c2ccccc2C[C@H]1O)c1cccc(CCl)c1
Request: Name the one with the greater inhibition at 1 µM value, either a or b as given. Respond using the label that marks the chosen record.
Response: a

* * *

- target-or-system: VIPR2 (Homo sapiens, UniProt P41587)
- method-notes: Inhibition of VIP-induced cAMP elevation (% Activity cAMP)
- Type: cell-based
- Parameters: expressed in transfected cells; host or cells: HEK293 cells transfected with VIPR2 in pCDNA3.1 (as described)
- study-conditions: 5 μM, Batch 1
endpoint: inhibition at 5 µM (%)

CC(C)C(=O)NC[C@@H](O)C[C@@H](Cc1ccccc1)C(=O)N[C@H]1c2ccccc2C[C@H]1O : -0.9
O=C(NC[C@@H](O)C[C@@H](Cc1ccccc1)C(=O)N[C@H]1c2ccccc2C[C@H]1O)c1ccco1 : 19.1
O=C(CCCCl)NC[C@@H](O)C[C@@H](Cc1ccccc1)C(=O)N[C@H]1c2ccccc2C[C@H]1O : 15.9
O=C(NC[C@@H](O)C[C@@H](Cc1ccccc1)C(=O)N[C@H]1c2ccccc2C[C@H]1O)c1ccncc1 : 21
O=C(NC[C@@H](O)C[C@@H](Cc1ccccc1)C(=O)N[C@H]1c2ccccc2C[C@H]1O)c1cccc(CCl)c1 : 15.1

[a] O=C(N[C@H]1c2ccccc2C[C@H]1O)[C@H](Cc1ccccc1)C[C@H](O)CNS(=O)(=O)c1cccc([N+](=O)[O-])c1
[b] Cc1cc(S(=O)(=O)NC[C@@H](O)C[C@@H](Cc2ccccc2)C(=O)N[C@H]2c3ccccc3C[C@H]2O)c(C)cc1Cl
Request: Would you mind telling me which has the lower recorded inhibition at 5 µM between a and b ? Respond using the label that marks the chosen record.
Response: a
(a: 21.3%, b: 41.1%)

* * *

- target-or-system: VIPR2 (Homo sapiens, UniProt P41587)
- Sequence (P41587 24-438): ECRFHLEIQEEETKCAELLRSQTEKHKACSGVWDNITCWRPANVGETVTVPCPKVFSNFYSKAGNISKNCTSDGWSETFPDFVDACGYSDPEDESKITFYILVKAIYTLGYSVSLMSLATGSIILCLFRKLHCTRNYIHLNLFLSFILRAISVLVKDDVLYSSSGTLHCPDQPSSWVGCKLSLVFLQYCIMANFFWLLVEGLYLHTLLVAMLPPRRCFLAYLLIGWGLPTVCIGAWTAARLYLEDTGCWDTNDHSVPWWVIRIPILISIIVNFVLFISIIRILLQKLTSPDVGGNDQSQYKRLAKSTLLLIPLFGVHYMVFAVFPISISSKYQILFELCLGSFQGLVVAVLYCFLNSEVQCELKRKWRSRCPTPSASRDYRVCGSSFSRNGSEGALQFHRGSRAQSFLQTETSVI
- method-notes: Inhibition of VIP-induced cAMP elevation (% Activity cAMP)
- Format: cell-based
- Design: expressed in transfected cells; host or cells: HEK293 cells transfected with VIPR2 in pCDNA3.1 (as described)
- study-conditions: 1 μM, Batch 1
endpoint: inhibition at 1 µM (%)

O=C(CCN1C(=O)C=CC1=O)NC[C@@H](O)C[C@@H](Cc1ccccc1)C(=O)N[C@H]1c2ccccc2C[C@H]1O : 19
COc1cc(C(=O)NC[C@@H](O)C[C@@H](Cc2ccccc2)C(=O)N[C@H]2c3ccccc3C[C@H]2O)cc(OC)c1OC : 20

[a] COc1ccc(S(=O)(=O)NC[C@@H](O)C[C@@H](Cc2ccccc2)C(=O)N[C@H]2c3ccccc3C[C@H]2O)cc1OC
[b] Cc1ccc([N+](=O)[O-])cc1S(=O)(=O)NC[C@@H](O)C[C@@H](Cc1ccccc1)C(=O)N[C@H]1c2ccccc2C[C@H]1O
Request: Name the one with the greater inhibition at 1 µM value, either a or b as given. Respond using the label that marks the chosen record.
Response: a
